# Tested on: SLK;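 note: KINOMEscan kinase panel screen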
# assayConditions: concentration: 1 μM,replicates: in singlicate; n = 1
Assign T to entries whose %Inh meets or exceeds 20%; assign F to the rest.

Hello, I need to know if Cn1cc(-c2cccc3c(N)c(C(N)=O)nnc23)cn1 has measured %Inh not below 20%. Thanks! F

Hello, I need to know if CCn1c(-c2nonc2N)nc2cncc(CNC3CCNCC3)c21.Cl [SB-747651] has measured %Inh not below 20%. Thanks! F

Hello, I need to know if O=C(NCC1CC1)c1ccc(-c2cc(C(=O)NC3CC3)ccc2F)cc1 [GW810445] has measured %Inh not below 20%. Thanks! F

Hello, I need to know if FC(F)(F)c1cc(Br)cc(Nc2nccc(-c3cnn4ncccc34)n2)c1 [GW810578] has measured %Inh not below 20%. Thanks! F

Hello, I need to know if C[C@@H](Oc1cc(-n2cnc3cc(-c4cnn(C)c4)ccc32)sc1C(N)=O)c1ccccc1Cl [GSK580432] has measured %Inh not below 20%. Thanks! T

Hello, I need to know if CN1CCN(CCNc2nc3cc(Oc4ccc(NC(=O)Nc5cc(C(F)(F)F)ccc5F)cc4)ccc3[nH]2)CC1.Cl.Cl [GW768504] has measured %Inh not below 20%. Thanks! F

Hello, I need to know if Cc1ccc(C(=O)Nc2ccc(Oc3ccc4nc(NC(=O)C5CC5)cn4c3)c(F)c2)c(=O)n1-c1ccccc1 has measured %Inh not below 20%. Thanks! T
